# measured_target: human recombinant H-PGDS (Homo sapiens)
# test_description: Fluorescence Intensity h-PGDS TBA Enzyme Assay
# Format: biochemical
# reported_conditions: 1:175,000 human recombinant H-PGDS, highest inhibitor concentration typically 1 μM
Consider the cut-off 0.09 µM. If the recorded IC50 is strictly smaller, the label is met; if not, the label is not met.

Past entries and their recorded results:
[[record]]
molecule = "COc1cccc(-c2ccc(C(=O)NC(=O)CC(N)c3ccc(OC)c(OC)c3)cn2)c1 (stereo not shown)"
category_label = "not met"

[[record]]
molecule = "COc1ccc2nc(CCNC(=O)c3ccc(-c4cccc(F)c4)nc3)[nH]c2c1"
category_label = "met"


Ask: Item NC(CC(=O)NC(=O)c1ccc(-c2ccc(F)cc2)nc1)C1CC1 (stereo not shown) : IC50 beneath 0.09 µM, strictly?
Reply: not met

Ask: Hello, I'm reviewing records and need to know if IC50 of O=C(NCCN1CCCOC1=O)c1ccc(-c2cccc(F)c2)nc1 is below 0.09 µM. Could you check?
Reply: met

Ask: Please check: IC50 for Cc1ccc(CN2CCC(NC(=O)c3ccc(-c4cccc(F)c4)nc3)C2=O)cc1 (stereo not shown) , strictly under 0.09 µM or not?
Reply: met

Ask: Does the reported IC50 of the following molecule sit strictly below 0.09 µM? COc1cc(CNC(=O)c2cnc(-c3cccc(F)c3)c(Cl)c2)cc2c1OCCO2
Reply: met

Ask: I'd appreciate it if you could check whether O=C(NCCC1CCC(=O)N1CCN1CCNC1=O)c1ccc(-c2ccccc2)nc1 (stereo not shown) has IC50 smaller than 0.09 µM.
Reply: met

Ask: Dear colleague, could you confirm whether IC50 of Cc1ccc(CNC(=O)c2ccc(-c3ccccc3)nc2)cc1 [Example 365, N-(4-Methylbenzyl)-6-phenylnicotinamide] falls below 0.09 µM? Thanks.
Reply: met

Ask: Item O=C(Nc1ccccc1)c1ccc(-c2ccc(F)cc2)nc1 [Example 256, 6-(4-Fluorophenyl)-N-phenylnicotinamide] : IC50 beneath 0.09 µM, strictly?
Reply: not met

* * *

Some molecules, each annotated with its measured IC50.
# measured_target: human recombinant H-PGDS (Homo sapiens, UniProt O60760)
# Sequence (O60760 whole entry): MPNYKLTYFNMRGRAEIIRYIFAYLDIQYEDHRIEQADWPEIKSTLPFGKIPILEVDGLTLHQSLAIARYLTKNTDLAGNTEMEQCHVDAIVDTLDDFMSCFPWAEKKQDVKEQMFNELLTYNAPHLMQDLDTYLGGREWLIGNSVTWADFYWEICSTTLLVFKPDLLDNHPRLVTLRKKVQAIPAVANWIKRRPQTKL
# test_description: Fluorescence Intensity h-PGDS TBA Enzyme Assay
# Assay type: biochemical
# reported_conditions: 1:175,000 human recombinant H-PGDS, highest inhibitor concentration typically 1 μM
# Procedure: Fluorescence Intensity h-PGDSTBA Enzyme Assay Prostaglandin D Synthase (PGDS) converts the substrate prostaglandin H2 (PGH2) to prostaglandin D2. The depletion of PGH2 was measured via an Fe(II) reduction of the remaining PGH2 to malondialdehyde (MDA) and 12-HHT. […]
Field format: number, assumed nM, no unit text.

Use these answered entries as a reference point.
[[record]]
molecule = "COc1cccc(-c2ccc(C(=O)NCc3ccc(Cl)cc3)cn2)c1"
reported_value = 561

[[record]]
molecule = "CS(=O)(=O)Cc1noc(CNC(=O)c2ccc(-c3cccc(F)c3)nc2)n1"
reported_value = 285

[[record]]
molecule = "Cc1ncsc1CCNC(=O)c1ccc(-c2cccc(F)c2)nc1"
reported_value = 6.36

[[record]]
molecule = "COc1ccc(C(N)CC(=O)NC(=O)c2ccc(-c3cccc(F)c3)nc2)cc1OC (stereo not drawn)"
reported_value = 12.4

[[record]]
molecule = "O=C(NC[C@H]1CC[C@H](c2nnc(C3CC3)[nH]2)CC1)c1ccc(-c2cccc(F)c2)nc1"
reported_value = 83.6


Ask: # query: IC50 of entry COc1cccc(-c2ccc(C(=O)NCc3ccc(S(N)(=O)=O)cc3)cn2)c1
Reply: 365

Ask: Please look up its IC50: Cc1cccc(-c2ccc(C(=O)NCC(C)O)cn2)c1 (stereo not drawn)
Reply: 66.2

Ask: Look at this molecule and give its reported IC50. CN(C)[C@@H]1COC[C@H]1NC(=O)c1ccc(-c2cccc(F)c2)nc1
Reply: 75.8

Ask: Would you mind telling me what IC50 value was observed for COc1cccc(-c2ccc(C(=O)NCC(=O)N(C)C)cn2)c1 ?
Reply: 975

Ask: Any idea what IC50 was measured for COc1cccc(-c2ccc(C(=O)NCc3ccccc3)cn2)c1 ?
Reply: 131

Ask: What does the record list as IC50 for Cc1ccc(CN2CCC(NC(=O)c3ccc(-c4ccc(F)cc4)nc3)C2=O)cc1 (stereo not drawn) ?
Reply: 280

Ask: IC50 for COc1cccc(-c2ccc(C(=O)NC(=O)[C@@H](N)C(C)C)cn2)c1 ?
Reply: 816

Ask: So what's the measured IC50 for this one? COc1cc(F)cc(-c2ccc(C(=O)NCc3ccc(OC)c(OC)c3)cn2)c1
Reply: 90
